Procedure Summary: cytotoxicity in Drosophila DL1 cells
Assay type: cell-based
Test Settings: Drosophila, DL1 cells (embryonic macrophage-derived), DL1 cells, 1 µM, replicate 2, relative to DMSO 1%; read-out: % viability, viability 2

Molecule | viability at 1 µM / %
C=C1CC[C@H]2[C@]3(C)C[C@H](C=C(C)C)O[C@H]3CC[C@]2(C)[C@@H]1Cc1c(O)c(C)c(C)oc1=O [Compound 6, subglutinol B] | 8.28
C=C1CCC2C(C)(CCC=C(C)C)C(O)CCC2(C)C1Cc1c(OC)oc(C)c(C(=O)OC)c1=O (stereo not drawn) [Compound 14] | 8.02
C=C1CCC2C(C)(CC(=O)C=C(C)C)C(O)CCC2(C)C1Cc1c(OC)oc(CO)c(C)c1=O (stereo not drawn) [Compound 19] | 87
C=C1CC[C@H]2[C@]3(C)C[C@@H](C=C(C)C)O[C@H]3CC[C@]2(C)[C@@H]1Cc1c(O)c(C)c(C)oc1=O [Compound 5, subglutinol A] | 3.84
C=C1CC[C@H]2[C@]3(C)C[C@H](C=C(C)C)O[C@H]3CC[C@]2(C)[C@@H]1Cc1c(OC)oc(CO)c(C)c1=O [Compound 18] | 7.12
C=C1CC[C@H]2[C@]3(C)C[C@H](C=C(C)C)O[C@H]3CC[C@]2(C)[C@@H]1Cc1c(OC)oc(C)c(C)c1=O [Compound 24] | 10.1
